# System: A549
# TEST METHOD NOTES: NCI tumour cell line growth inhibition, 48 h
Calls of active or inactive are those of the source. No stated cut-off is given here; in the data, active = GI50 up to about 1.1 µM and inactive = higher.
Respond with a class label; see 1 = active, -1 = inactive

Each molecule tested received a call. Report the one for Cc1cccc(C[C@@]2(SCc3ccccc3)C(C)(C)[C@@H]3CC[C@@]2(C)C3)n1 . -1

Each molecule tested received a call. Report the one for NS(=O)(=O)c1ccc(NC(=O)N/N=C/c2ccccc2O)cc1 . -1

Each molecule tested received a call. Report the one for O=C(NCc1ccc(Cl)cc1)c1cc2sccc2nc1C(F)(F)F . -1

Each molecule tested received a call. Report the one for Cc1ccccc1NC(=S)N/N=C(/c1ccccc1)c1ccccn1 . 1

Each molecule tested received a call. Report the one for Cn1c(=O)c2c(nc3n2CCC(=O)N3CCCCl)n(C)c1=O . -1

Each molecule tested received a call. Report the one for O=C1NC(c2cccc3ccccc23)Nc2ccc(Cl)cc21 (stereo not given) . 1

Each molecule tested received a call. Report the one for Cc1ccc2c(c1)-c1c(C#N)c(N)nc(-c3ccc(Cl)cc3)c1CCS2(=O)=O . -1

Each molecule tested received a call. Report the one for Cn1cnc([N+](=O)[O-])c1SC1=NCCS1 . -1

Each molecule tested received a call. Report the one for CCO/C=C\C12CCCC1NC(c1ccccc1)(c1ccccc1)O2 (stereo not given) . -1

Each molecule tested received a call. Report the one for C[C@H](CCC(=O)NCCS(=O)(=O)O)[C@H]1CC[C@H]2[C@@H]3CC[C@@H]4C[C@H](O)CC[C@]4(C)[C@H]3CC[C@]12C . -1
